// provenance: ChEMBL document CHEMBL4130478

Overview of recorded log10 IC50 for various compounds
Molecular target: Trypanothione reductase (Leishmania infantum, UniProt A4HSF7)
Sequence (A4HSF7 whole entry): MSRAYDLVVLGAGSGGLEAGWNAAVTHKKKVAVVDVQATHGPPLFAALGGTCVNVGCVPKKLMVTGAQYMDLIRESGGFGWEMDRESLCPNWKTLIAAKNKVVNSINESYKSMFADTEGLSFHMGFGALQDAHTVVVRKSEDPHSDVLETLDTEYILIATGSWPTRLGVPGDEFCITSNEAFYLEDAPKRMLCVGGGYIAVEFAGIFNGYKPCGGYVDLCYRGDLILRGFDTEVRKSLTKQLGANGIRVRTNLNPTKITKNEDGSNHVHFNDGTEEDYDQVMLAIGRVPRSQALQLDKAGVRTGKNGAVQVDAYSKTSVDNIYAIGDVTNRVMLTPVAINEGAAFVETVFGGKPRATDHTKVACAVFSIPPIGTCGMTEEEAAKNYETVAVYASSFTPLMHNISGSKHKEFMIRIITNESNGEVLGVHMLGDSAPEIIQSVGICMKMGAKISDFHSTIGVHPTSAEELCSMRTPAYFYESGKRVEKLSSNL
Experiment: Inhibition of oxidoreductase activity of recombinant Leishmania infantum trypanothione reductase pre-incubated for 10 mins before T[S]2 and NADPH addition
Numbered stars: 1 amine (or outer) side, 2 acyl side, 3 side chain; on linkers, the order of the positions; unused ones are H or OH. Square brackets hold non-standard residues; d marks the D form. Peptide text beside a SMILES is read from it. X1 = O=C(CC[C@@H]1CCCN1[*:1])[*:2]; β3hQ = NC(=O)CC[C@H](N)CC(=O)O; β3hK = NCCCC[C@H](N)CC(=O)O; β3hS = N[C@@H](CO)CC(=O)O; Nle = CCCC[C@H](N)C(=O)O; β3hA = C[C@H](N)CC(=O)O
The base-10 logarithm of IC50, taken with IC50 in µM, is what appears here.

- Compound: "CCCC[C@H](NC(=O)[C@H](CO)NC(=O)[C@@H](NC(=O)C[C@H](C)NC(=O)[C@@H](NC(=O)[C@H](CO)NC(=O)[C@H](CCC(N)=O)NC(=O)C[C@@H](NC(=O)[C@@H](NC(=O)[C@H](CCCCN)NC(=O)[C@@H]1CCCN1C(C)=O)[C@@H](C)CC)[C@@H](C)CC)C(C)C)[C@@H](C)CC)C(N)=O"
  Measured on: "Trypanothione reductase (Leishmania infantum, UniProt A4HSF7)"
  log10 IC50: 1.45
- Compound: "CCCC[C@H](NC(=O)C[C@H](CCCCN)NC(=O)[C@H](CCCC)NC(=O)C[C@H](CO)NC(=O)C[C@@H](NC(=O)CNC(=O)[C@@H](NC(=O)C[C@H](CO)NC(=O)C[C@H](CCC(N)=O)NC(=O)[C@@H](NC(=O)[C@@H](NC(=O)C[C@H](CCCCN)NC(=O)C[C@@H]1CCCN1C(C)=O)[C@@H](C)CC)[C@@H](C)CC)C(C)C)[C@@H](C)CC)C(N)=O"
  Measured on: "Trypanothione reductase (Leishmania infantum, UniProt A4HSF7)"
  log10 IC50: 0.97
- Compound: "CCCC[C@@H](CC(=O)N[C@@H](CCCCN)C(=O)N[C@@H](CCCC)C(N)=O)NC(=O)[C@H](CO)NC(=O)[C@@H](NC(=O)CNC(=O)C[C@H](NC(=O)[C@H](CO)NC(=O)[C@H](CCC(N)=O)NC(=O)C[C@H](NC(=O)[C@@H](NC(=O)[C@H](CCCCN)NC(=O)[C@@H]1CCCN1C(C)=O)[C@@H](C)CC)[C@@H](C)CC)C(C)C)[C@@H](C)CC"
  Measured on: "Trypanothione reductase (Leishmania infantum, UniProt A4HSF7)"
  log10 IC50: 0.49
- Compound: "CCCC[C@@H](CC(N)=O)NC(=O)[C@H](CCCCN)NC(=O)[C@H](CCCC)NC(=O)C[C@H](CO)NC(=O)C[C@H](NC(=O)CNC(=O)[C@@H](NC(=O)C[C@H](CO)NC(=O)[C@H](CCC(N)=O)NC(=O)[C@@H](NC(=O)[C@@H](NC(=O)C[C@H](CCCCN)NC(=O)C[C@@H]1CCCN1C(C)=O)[C@@H](C)CC)[C@@H](C)CC)C(C)C)[C@@H](C)CC"
  Measured on: "Trypanothione reductase (Leishmania infantum, UniProt A4HSF7)"
  log10 IC50: 0.32

Look at this compound and give its reported log10 IC50. CCCC[C@@H](CC(N)=O)NC(=O)[C@H](CCCCN)NC(=O)[C@H](CCCC)NC(=O)C[C@H](CO)NC(=O)[C@@H](NC(=O)CNC(=O)[C@@H](NC(=O)C[C@H](CO)NC(=O)[C@H](CCC(N)=O)NC(=O)[C@@H](NC(=O)C[C@H](NC(=O)[C@H](CCCCN)NC(=O)C[C@@H]1CCCN1C(C)=O)[C@@H](C)CC)[C@@H](C)CC)C(C)C)[C@@H](C)CC 0.54

Sample CCCC[C@H](NC(=O)C[C@H](CCCCN)NC(=O)[C@H](CCCC)NC(=O)C[C@H](CO)NC(=O)[C@@H](NC(=O)C[C@H](C)NC(=O)[C@@H](NC(=O)C[C@H](CO)NC(=O)C[C@H](CCC(N)=O)NC(=O)[C@@H](NC(=O)[C@@H](NC(=O)[C@H](CCCCN)NC(=O)CC[C@@H]1CCCN1C(C)=O)[C@@H](C)CC)[C@@H](C)CC)C(C)C)[C@@H](C)CC)C(N)=O (Ac-[X1]KII[β3hQ][β3hS]V[β3hA]I[β3hS][Nle][β3hK][Nle]-NH2) — what was its log10 IC50? 0.22
